test system: 883617-216-R-J1-PDC complex spheroid viability; test: Anticancer human tumor 883617-216-R-J1-PDC patient-derived bladder carcinoma cell line growth inhibition; details: second compound 1 µM; first compound 3.16 µM; stronger effect = lower value;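 further: exposure lasted seven days after three days of spheroid growth; 100% = DMSO vehicle control luminescence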
Answer each item with its documented viability, T/C.
Numbers only, in %.

CC1COCCN1c1cc(C2(S(C)(=N)=O)CC2)nc(-c2ccnc3[nH]ccc23)n1 (stereo not given) + NC1CCC(NC2CC2c2ccccc2)CC1 | 39
COc1ccc([C@@H](O)c2cc(-c3ncnc4cc(N5CCOCC5)ccc34)c(F)cc2Cl)nn1 + NC1CCC(NC2CC2c2ccccc2)CC1 | 35.1
CC1(C)CCC(CN2CCN(c3ccc(C(=O)NS(=O)(=O)c4ccc(NCC5CCOCC5)c([N+](=O)[O-])c4)c(Oc4cnc5[nH]ccc5c4)c3)CC2)=C(c2ccc(Cl)cc2)C1 + NC1CCC(NC2CC2c2ccccc2)CC1 | 113
CC(C)c1c(-c2ccccc2)nc2c(C#N)c[nH]n2c1=O + NC1CCC(NC2CC2c2ccccc2)CC1 | 93.6

For every item in the list below, what is its measured viability, T/C?
1. O=C(c1cc(Cc2n[nH]c(=O)c3ccccc23)ccc1F)N1CCN(C(=O)C2CC2)CC1 + NC1CC1c1ccc(-c2cccc(O)c2)cc1
2. CC(C)c1c(-c2ccccc2)nc2c(C#N)c[nH]n2c1=O + NC1CC1c1ccc(-c2cccc(O)c2)cc1
3. O=C(c1cc(Cc2n[nH]c(=O)c3ccccc23)ccc1F)N1CCN(C(=O)C2CC2)CC1 + NC1CCC(NC2CC2c2ccccc2)CC1

OUT:
1. 33.5
2. 102
3. 50.8
